- TARGET ENTITY: Cytochrome P450 2D6 (Homo sapiens) (UniProt P10635)
- Sequence (P10635 whole entry, looked up): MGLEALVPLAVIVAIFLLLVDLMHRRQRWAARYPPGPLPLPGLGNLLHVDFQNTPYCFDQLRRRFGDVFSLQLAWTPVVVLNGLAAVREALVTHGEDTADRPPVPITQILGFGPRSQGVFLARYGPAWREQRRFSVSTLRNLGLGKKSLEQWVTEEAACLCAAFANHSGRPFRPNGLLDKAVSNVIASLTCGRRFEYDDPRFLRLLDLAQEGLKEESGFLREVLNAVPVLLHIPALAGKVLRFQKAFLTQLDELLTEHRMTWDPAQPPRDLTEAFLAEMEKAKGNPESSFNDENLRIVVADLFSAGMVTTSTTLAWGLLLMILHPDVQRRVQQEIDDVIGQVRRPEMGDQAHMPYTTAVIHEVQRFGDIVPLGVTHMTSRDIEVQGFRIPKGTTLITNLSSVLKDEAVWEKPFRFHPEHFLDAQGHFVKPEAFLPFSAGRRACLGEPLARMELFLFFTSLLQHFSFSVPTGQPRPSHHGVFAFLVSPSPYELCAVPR
- MEASUREMENT PROTOCOL: Cytochrome P450 Family 2 Subfamily D Member 6 (CYP2D6) small molecule antagonists: luciferase reporter qHTS assay (AID 1671196); also: nearly all actives have a fitted effect of over 50% in size
- CONDITION NOTES: P450-Glo CYP2D6 enzyme assay, luciferin luminescence, 1 h; series mostly up to 115 µM
Results filed as inconclusive are left out. Activity calls are given as the source filed them. Calls follow the shape of the dose curve; as a rule, active = well fitted inhibition curve with a large enough effect in the repeat runs; inconclusive = weak or mixed curves; inactive = no such curve, though single readings can be large or run the other way.
Mark one answer only. Choices: active, inactive

Examples with answers:
• Cn1ccnc1 = inactive
• COCCC(=O)OC = inactive
• CC1(C)[C@H](C(=O)OCc2cccc(Oc3ccccc3)c2)[C@@H]1C=C(Cl)Cl = inactive

Here is another molecule to look at.
Status in this test for O=C(Nc1ccccc1)c1cc(Cl)ccc1O ?
active

---

- MEASUREMENT PROTOCOL: qHTS assay to identify small molecule agonists of the estrogen related receptor (ERR) signaling pathway (AID 1224820); as to activation: % is scaled to controls: 0 for no effect and ±100 for the full control effect
- CONDITION NOTES: ERR reporter cell line, luciferase agonist mode; series mostly up to 46.1 µM
Records with an inconclusive call do not appear. The source made the active and inactive calls. Calls come from the whole dose curve; as a rule, active = well fitted activation curve with a large enough effect in the repeat runs; inconclusive = weak or mixed curves; inactive = no such curve, though single readings can be large or run the other way.
Mark one answer only. Choices: active, inactive

* OC[C@H]1NC[C@@H](O)[C@@H]1O | inactive
* N#C/C(=C\c1ccc(-c2cc(Cl)ccc2Cl)o1)C(=O)Nc1cccc2ncccc12 | inactive
* C[C@@]1(C2CCCC2)Cc2cc(OCC(=O)O)c(Cl)c(Cl)c2C1=O | inactive

Status in this test for NCCCC(=O)O ?
inactive

// query: Clc1ccc(N2CCN(Cc3c[nH]c4ncccc34)CC2)cc1
inactive

// query: N#C/C(=C\c1ccc(O)c(O)c1)C(=O)NCCc1ccccc1
inactive

// query: CN1CCc2cc(NC(=O)Nc3cccnc3)ccc21
active

// query: CCCOC(=O)c1c(-c2ccccc2)nc(CC)c(C(=O)SCC)c1CCC
inactive

// query: O=C1c2ccccc2C(=O)c2c(NCCc3ccc(O)cc3)ccc(NCCc3ccc(O)cc3)c21
inactive

// query: NCCC1CCCC(CCN)N1 (stereo unspecified)
inactive

// query: NC(C(=O)N[C@@H]1C(=O)N2C(C(=O)O)=C(Cl)CS[C@H]12)c1ccccc1 (stereo partly specified)
inactive

---

- MEASUREMENT PROTOCOL: qHTS assay to identify small molecule agonists of the AP-1 signaling pathway (AID 1159526); also: % is scaled to controls: 0 for no effect and ±100 for the full control effect
- CONDITION NOTES: ME-180 (cervical carcinoma) AP-1-bla reporter, beta-lactamase FRET ratio, 5 h; series mostly up to 76.8 µM
Records with an inconclusive call do not appear. The source made the active and inactive calls. Calls follow the shape of the full dose curve.
READOUT TYPE: activation

- C1CCSC1: inactive
- COC(=O)c1ccc([N+](=O)[O-])cc1: inactive
- Cc1cccc2c1ccc1ccccc12: inactive

---

- TARGET ENTITY: Nuclear receptor subfamily 1 group I member 3 (Homo sapiens) (UniProt Q14994)
- Sequence (Q14994 whole entry, looked up): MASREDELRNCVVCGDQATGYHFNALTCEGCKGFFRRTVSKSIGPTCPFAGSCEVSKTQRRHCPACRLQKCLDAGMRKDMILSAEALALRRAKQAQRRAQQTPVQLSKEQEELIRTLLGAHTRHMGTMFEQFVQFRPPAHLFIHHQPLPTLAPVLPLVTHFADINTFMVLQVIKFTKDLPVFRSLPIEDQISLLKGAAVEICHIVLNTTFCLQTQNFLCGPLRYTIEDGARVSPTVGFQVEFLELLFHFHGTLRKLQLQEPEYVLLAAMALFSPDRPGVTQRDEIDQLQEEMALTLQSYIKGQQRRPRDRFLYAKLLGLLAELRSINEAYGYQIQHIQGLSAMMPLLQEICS
- MEASUREMENT PROTOCOL: qHTS assay to identify small molecule agonists of the constitutive androstane receptor (CAR) signaling pathway (AID 1224839); also: nearly all actives have a fitted effect of over 15% in size;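 as to activation: HepG2 cells stably carrying human CAR and a CYP2B6 luciferase reporter; % is scaled to controls: 0 for no effect and ±100 for the full control effect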
- CONDITION NOTES: HepG2 hCAR CYP2B6-luciferase, agonist mode, 24 h; series mostly up to 92.4 µM
Results filed as inconclusive are left out. Activity calls are given as the source filed them. Calls follow the shape of the dose curve; as a rule, active = well fitted activation curve with a large enough effect in the repeat runs; inconclusive = weak or mixed curves; inactive = no such curve, though single readings can be large or run the other way.
Mark one answer only. Choices: active, inactive

• c1ccc2cc3c4ccccc4c4ccccc4c3cc2c1 = inactive
• Cc1ccc(S(=O)(=O)C(I)I)cc1 = inactive
• C/C(=N\[Si](C)(C)C)O[Si](C)(C)C = inactive
• Cc1ccc2nc(-c3ccc(N)cc3)sc2c1S(=O)(=O)O = active

Status in this test for CCN(CC)c1ccc(N=Nc2ccccc2)cc1 ?
active

// query: C=C1C(CCl)(CCl)C2(Cl)C(Cl)C(Cl)C1(Cl)C2(Cl)Cl (stereo not given)
active

---

- TARGET ENTITY: Cytochrome P450 2D6 (Homo sapiens) (UniProt P10635)
- MEASUREMENT PROTOCOL: Cytochrome P450 Family 2 Subfamily D Member 6 (CYP2D6) small molecule antagonists: luciferase reporter qHTS assay (AID 1671196); also: nearly all actives have a fitted effect of over 50% in size
- CONDITION NOTES: P450-Glo CYP2D6 enzyme assay, luciferin luminescence, 1 h; series mostly up to 115 µM
Inconclusive results are not listed. Calls of active or inactive are those of the source. Calls follow the shape of the dose curve; as a rule, active = well fitted inhibition curve with a large enough effect in the repeat runs; inconclusive = weak or mixed curves; inactive = no such curve, though single readings can be large or run the other way.
Mark one answer only. Choices: active, inactive

Examples with answers:
* O=c1cc[nH]cc1 | inactive
* CCCCCCCCOC(=O)c1cc(O)c(O)c(O)c1 | active
* CC1=CC[C@@H](C(C)(C)O)CC1 | inactive

Status in this test for CCn1c2ccccc2c2ccccc21 ?
inactive

// query: Cc1cccc2c1ccc1ccccc12
inactive

// query: CCNc1nc(NC(C)(C)C)nc(OC)n1
inactive

// query: c1ccc(C[P+](c2ccccc2)(c2ccccc2)c2ccccc2)cc1
active

// query: c1ccc2c(c1)-c1ccc3ccc4cccc5cc-2c1c3c45
inactive

// query: N#Cc1nc(Cl)c(Cl)c(Cl)c1Cl
inactive

---

- MEASUREMENT PROTOCOL: qHTS assay to identify small molecule antagonists of the thyroid receptor (TR) signaling pathway - cell viability counter screen (AID 743064); also: % is scaled to controls: 0 for no effect and ±100 for the full control effect; nearly all actives have a fitted effect of over 50% in size
- CONDITION NOTES: GH3.TRE-Luc viability, CellTiter-Fluor, 24 h; series mostly up to 70.3 µM
Records with an inconclusive call do not appear. Activity calls are given as the source filed them. Calls follow the shape of the dose curve; as a rule, active = well fitted cell-killing curve with a large enough effect in the repeat runs; inconclusive = weak or mixed curves, or effect the other way; inactive = no such curve, though single readings can be large or run the other way.
READOUT TYPE: outcome

* NC(=S)NS(=O)(=O)c1ccc(N)cc1 | inactive
* CC1(C)S[C@@H]2[C@H](NC(=O)[C@H](N)c3ccc(O)cc3)C(=O)N2[C@H]1C(=O)O | inactive
* NC(N)=NCC1COC2(CCCCC2)O1 (stereo not drawn) | inactive

---

- MEASUREMENT PROTOCOL: qHTS assay for small molecules that induce genotoxicity in human embryonic kidney cells expressing luciferase-tagged ATAD5 - cell viability (AID 651634); also: nearly all actives have a fitted effect of over 25% in size
- CONDITION NOTES: HEK293T ATAD5-luc cells viability, CellTiter-Fluor, 15.5 h; series mostly up to 83.3 µM
Results filed as inconclusive are left out. The source made the active and inactive calls. Calls follow the shape of the full dose curve.
Mark one answer only. Choices: yes (active), no (inactive)

Examples with answers:
• CCCCCCCCCCCC[n+]1ccc2ccccc2c1 = yes
• C=CC(N)CCC(=O)O (stereo not given) = no
• CN(Cc1ccccc1)Cc1ccccc1 = no
• CNCC(=O)N[C@@H](CCCN=C(N)N)C(=O)N[C@H](C(=O)N[C@@H](Cc1ccc(O)cc1)C(=O)N[C@H](C(=O)N[C@@H](Cc1cnc[nH]1)C(=O)N1CCC[C@H]1C(=O)N[C@@H](C)C(=O)O)C(C)C)C(C)C = no
• O=C(CCCCCCCCc1cccnc1)N1CCC(C=C(c2ccccc2)c2ccccc2)CC1 = yes
• COc1cc([C@@H]2c3cc4c(cc3[C@@H](O[C@@H]3O[C@@H]5CO[C@@H](C)O[C@H]5[C@H](O)[C@H]3O)[C@H]3COC(=O)[C@H]23)OCO4)cc(OC)c1O = no

Status in this test for Cc1cc(Br)ccc1NC(=O)CCl ?
yes

// query: C/C=C/C1=C(C(=O)O)N2C(=O)[C@@H](NC(=O)[C@H](N)c3ccc(O)cc3)[C@H]2SC1
no

// query: C1CCc2nnnn2CC1
no

// query: CC(C)Cc1ccc([C@H](C)C(=O)O)cc1
no

---

- MEASUREMENT PROTOCOL: qHTS assay to identify small molecule antagonists of the estrogen related receptor signaling pathway with the pleiotropic PPARgamma coactivator (PGC) from Tox21 10K library - cell viability counter screen (AID 1224840); also: nearly all actives have a fitted effect of over 40% in size
- CONDITION NOTES: PGC/ERR reporter cells viability, CellTiter-Fluor, 17.5 h; series mostly up to 92.4 µM
Inconclusive results are not listed. Activity calls are given as the source filed them. Calls come from the whole dose curve; as a rule, active = well fitted cell-killing curve with a large enough effect in the repeat runs (not every such curve was filed as active); inconclusive = weak or mixed curves, or effect the other way; inactive = no such curve, though single readings can be large or run the other way.
Mark one answer only. Choices: 1 (active), 0 (inactive)

- Nc1ccc(Cl)c([N+](=O)[O-])c1: 0
- C=CCc1cc(S(=O)(=O)c2ccc(O)c(CC=C)c2)ccc1O: 0
- Nc1ccc2c(S(=O)(=O)O)cccc2c1S(=O)(=O)O: 0
- C/C(=N\[Si](C)(C)C)O[Si](C)(C)C: 0
- CCC1(C)C(=O)N(Cl)C(=O)N1Cl (configuration not stated): 0
- [Cl][Dy]([Cl])[Cl]: 0

Status in this test for C=C1C(CCl)(CCl)C2(Cl)C(Cl)C(Cl)C1(Cl)C2(Cl)Cl (configuration not stated) ?
1

---

- MEASUREMENT PROTOCOL: A CellTox Green Cytotoxicity Assay to monitor cytotoxicity in HepG2 cells - 24 hour (AID 1224878); also: % is scaled to controls: 0 for no effect and ±100 for the full control effect; nearly all actives have a fitted effect of over 45% in size
- CONDITION NOTES: CellTox Green fluorescence; series mostly up to 76.8 µM
Results filed as inconclusive are left out. Activity calls are given as the source filed them. The call rests on the fitted dose curve; in most records, active means well fitted activation curve with a large enough effect in the repeat runs; inconclusive means weak or mixed curves; inactive means flat fitted curve, though single readings scatter.
READOUT TYPE: cytotoxicity

These recorded examples may help you get a feel for the data.
• CCCCNc1ccc(NCCCC)c2c1C(=O)c1ccccc1C2=O = -4.17% [at 15.8 µM] (inactive)
• COc1cc(C(C)C)ccc1C = -14.9% [at 15.8 µM] (inactive)

Next up:
Need cytotoxicity, item CCCCCCCCCCCCS(=O)(=O)Cl
-12.5% [at 15.8 µM] (inactive)

These entries and their values trace back to PubChem BioAssay (Tox21).
